The entries below come with measured Kd values attached.
Target: UniProt:P15056
Test: biochemical

# example entries with known answers
# SMILES_RECORD, Kd
data = [
    ("COc1cc(NC(=O)Nc2cccc(Oc3ncnc4cc(OC)c(OC)cc34)c2)cc(C(F)(F)F)c1", "500 to 1000 nM"),
    ("COc1cc2ncnc(Oc3cccc(NC(=O)Nc4cc(C(C)(C)CO)on4)c3)c2cc1OC", "250 to 500 nM"),
    ("COc1cc2ncnc(Sc3cccc(NC(=O)Nc4cc(C(C)(C)C)on4)c3)c2cc1OCCCN1CCN(S(C)(=O)=O)CC1", "500 to 1000 nM"),
]

The compound listed as COCCOc1cc(NC(=O)Nc2cccc(Oc3ncnc4cc(OCCOC)c(OC)cc34)c2)cc(C(F)(F)F)c1 shows Kd equal to 500 to 1000 nM

The recorded Kd for COc1cc2ncnc(Oc3cccc(NC(=O)Nc4cccc(C(C)(C)C)c4)c3)c2cc1OC is 250 to 500 nM

Entry COc1cc2ncnc(Sc3cccc(NC(=O)Nc4cc(C(C)(C)C)on4)c3)c2cc1OCCN1CCN(S(C)(=O)=O)CC1 ; Kd = 250 to 500 nM

Entry CCOc1cc2c(Oc3cccc(NC(=O)Nc4cc(C(C)(C)C)nn4-c4ccccc4)c3)ncnc2cc1OC , Kd reported as 250 to 500 nM

The value of Kd measured for the compound COc1cc2ncnc(Oc3cccc(NC(=O)Nc4cc(C(C)(C)F)no4)c3)c2cc1OC turned out to be 250 to 500 nM

Item: COc1cc2ncnc(Oc3cccc(NC(=O)Nc4cc(C(C)(C)C)nn4-c4cccnc4C)c3)c2cc1OC | Kd: 500 to 1000 nM

---

Readings of pKd for the listed compounds
Target: RAF kinases (Homo sapiens, UniProt P15056)
Sequence (P15056 whole entry): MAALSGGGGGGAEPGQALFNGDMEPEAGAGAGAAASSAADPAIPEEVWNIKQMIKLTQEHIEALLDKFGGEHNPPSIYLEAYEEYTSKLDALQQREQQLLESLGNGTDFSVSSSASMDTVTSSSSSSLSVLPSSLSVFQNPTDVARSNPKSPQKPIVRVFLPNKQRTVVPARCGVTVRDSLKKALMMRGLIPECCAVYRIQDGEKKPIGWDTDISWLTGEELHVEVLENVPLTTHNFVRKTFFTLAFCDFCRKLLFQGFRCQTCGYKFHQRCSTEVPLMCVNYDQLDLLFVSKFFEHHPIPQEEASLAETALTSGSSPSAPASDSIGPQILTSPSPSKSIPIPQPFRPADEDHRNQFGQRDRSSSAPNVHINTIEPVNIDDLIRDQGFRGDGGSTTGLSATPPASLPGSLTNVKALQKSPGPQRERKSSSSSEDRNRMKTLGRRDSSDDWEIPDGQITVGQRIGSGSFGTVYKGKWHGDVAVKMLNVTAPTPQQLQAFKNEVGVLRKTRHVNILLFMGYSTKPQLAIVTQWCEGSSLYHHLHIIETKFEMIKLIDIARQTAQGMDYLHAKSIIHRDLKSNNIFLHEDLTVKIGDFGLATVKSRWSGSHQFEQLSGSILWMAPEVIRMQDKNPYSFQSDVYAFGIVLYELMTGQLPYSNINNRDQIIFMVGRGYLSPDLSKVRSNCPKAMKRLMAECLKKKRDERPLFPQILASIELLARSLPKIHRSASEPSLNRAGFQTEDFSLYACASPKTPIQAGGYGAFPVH
Assay: biochemical
pKd: −log10 of the molar value.

Here's what some known entries look like.
# COMPOUND, EXPERIMENTAL_VALUE
data = [
    ("COc1cc2ncnc(Sc3cccc(NC(=O)Nc4cc(C(C)(C)C)on4)c3)c2cc1OCCCN1CCS(=O)(=O)CC1 [Ex 62]", "6.30 to 6.60"),
    ("COc1cc2ncnc(Oc3cccc(NC(=O)Nc4cc(C(C)(C)C(F)(F)F)nn4-c4ccccc4)c3)c2cc1OC [Ex 306]", "< 6.00"),
    ("COc1cc2ncnc(Sc3cccc(NC(=O)Nc4cc(C(F)(F)F)nn4-c4ccc(C)cc4)c3)c2cc1OC [Ex 199]", "< 6.00"),
    ("COCCOc1cc2ncnc(Oc3cccc(NC(=O)Nc4ccc(C(F)(F)F)c(F)c4)c3)c2cc1OC [Ex 222]", "6.00 to 6.30"),
    ("COc1cc2c(Oc3cccc(NC(=O)Nc4cc(C(C)(C)C)on4)c3)ncnc2cc1OCCCN1CCC(CO)CC1 [Ex 29]", "6.30 to 6.60"),
]

According to the records, this compound COc1cc2ncnc(Oc3cccc(NC(=O)Nc4cc(C(C)(C)C)on4)c3)c2cc1OC[C@H](O)CN1CCN(C)CC1 [Ex 112] displays pKd of 6.00 to 6.30

Entry COc1cc2ncnc(Oc3cccc(NC(=O)Nc4cc(C(C)(C)C)on4)c3)c2cc1OCCN1CCN(CCO)CC1 [Ex 19] , pKd reported as 6.30 to 6.60
